- TARGET SYSTEM: Gal3S(b1-4)[Fuc(a1-3)]GlcNAc6S
- METHOD: glycan array binding signal (z-score within array); higher = stronger binding
- SETTINGS: glycan notation: IUPAC condensed, linker removed
Only a selection was taken, and the strongest signals are over-represented in it overall.

| BINDER | glycan array binding signal (z-score) |
| --- | --- |
| SJCP1531 (Schistosoma japonicum) (protein) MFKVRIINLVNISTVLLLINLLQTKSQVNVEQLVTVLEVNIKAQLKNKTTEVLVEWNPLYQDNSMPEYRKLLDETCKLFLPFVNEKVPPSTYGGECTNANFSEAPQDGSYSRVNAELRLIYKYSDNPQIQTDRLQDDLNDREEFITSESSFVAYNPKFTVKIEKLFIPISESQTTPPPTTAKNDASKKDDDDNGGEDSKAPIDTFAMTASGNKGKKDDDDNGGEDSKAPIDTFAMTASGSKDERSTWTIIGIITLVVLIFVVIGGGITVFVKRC | 1.28 |
| FimA-N1 (Actinomyces oris) (protein) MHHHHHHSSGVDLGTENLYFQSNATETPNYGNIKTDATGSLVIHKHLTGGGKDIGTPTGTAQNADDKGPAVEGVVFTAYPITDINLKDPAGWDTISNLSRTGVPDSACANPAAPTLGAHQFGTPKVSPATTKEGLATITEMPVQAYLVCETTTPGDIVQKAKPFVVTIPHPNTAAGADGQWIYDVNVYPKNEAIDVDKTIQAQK | 7.57 |
| Flo1 (Saccharomyces cerevisiae), P32768 (protein) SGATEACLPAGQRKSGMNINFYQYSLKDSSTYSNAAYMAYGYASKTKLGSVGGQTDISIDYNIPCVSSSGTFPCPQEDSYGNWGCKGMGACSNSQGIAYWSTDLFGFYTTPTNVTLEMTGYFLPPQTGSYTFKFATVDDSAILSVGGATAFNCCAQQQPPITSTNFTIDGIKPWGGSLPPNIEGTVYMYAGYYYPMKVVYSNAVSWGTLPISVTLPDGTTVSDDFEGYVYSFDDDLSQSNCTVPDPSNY | -0.547 |

Data origin: the supplement of paper PMC8728848
